The measured values listed here are drawn from paper PMC7230731.

Entries annotated with measured melting point
recordedMetric: melting point

molecule=O=C(Cc1c[nH]c2ccccc12)NN=C1C(=O)N(Cc2ccccc2)c2ccc(Br)cc21 recordedmetric="melting point" reading="210 to 211 °C"
molecule=O=C(Cc1c[nH]c2ccccc12)NN=C1CCCc2ccccc21 recordedmetric="melting point" reading="244 to 245 °C"
molecule=O=C(Cc1c[nH]c2ccccc12)NN=C1C(=O)Nc2ccc(F)cc21 recordedmetric="melting point" reading="281 to 283 °C"
molecule=O=C(Cc1c[nH]c2ccccc12)NN=C1C(=O)N(Cc2ccc(F)cc2)c2ccc(Br)cc21 recordedmetric="melting point" reading="183 to 185 °C"
molecule=O=C(Cc1c[nH]c2ccccc12)NN=C1C(=O)Nc2ccc(Br)cc21 recordedmetric="melting point" reading="> 300 °C"
molecule=O=C(Cc1c[nH]c2ccccc12)NN=C1C(=O)N(Cc2ccccc2)c2ccccc21 recordedmetric="melting point" reading="223 to 225 °C"
molecule=Cc1cc(C)c2c(c1)C(=NNC(=O)Cc1c[nH]c3ccccc13)C(=O)N2 recordedmetric="melting point" reading="294 to 296 °C"
molecule=O=C(Cc1c[nH]c2ccccc12)NN=C1C(=O)Nc2ccc(Cl)cc21 recordedmetric="melting point" reading="292 to 294 °C"

---

Test system: MCF-10A cells
Assay: SRB cytotoxicity assay, non-tumorigenic MCF-10A
Format: cell-based, human
Settings: IC50 MCF-10A / IC50 MCF-7
I would appreciate it if you labelled entries y when Selectivity Index MCF-10A/MCF-7 is 5 or higher, otherwise n.

molecule=C=CCN1C(=O)C(=NNC(=O)Cc2c[nH]c3ccccc23)c2ccccc21 assaytarget="MCF-10A cells" classname=y
molecule=O=C(Cc1c[nH]c2ccccc12)NN=C1C(=O)N(Cc2ccccc2)c2ccccc21 assaytarget="MCF-10A cells" classname=y
molecule=O=C(Cc1c[nH]c2ccccc12)NN=C1C(=O)Nc2ccc(F)cc21 assaytarget="MCF-10A cells" classname=y
molecule=N#Cc1ccc(CN2C(=O)C(=NNC(=O)Cc3c[nH]c4ccccc34)c3ccccc32)cc1 assaytarget="MCF-10A cells" classname=n
molecule=O=C(Cc1c[nH]c2ccccc12)NN=C1C(=O)Nc2ccc([N+](=O)[O-])cc21 assaytarget="MCF-10A cells" classname=y
molecule=O=C(Cc1c[nH]c2ccccc12)NN=C1C(=O)Nc2ccc(Cl)cc21 assaytarget="MCF-10A cells" classname=n
molecule=O=C(Cc1c[nH]c2ccccc12)NN=C1C(=O)N(Cc2ccc(F)cc2)c2ccccc21 assaytarget="MCF-10A cells" classname=n
molecule=O=C(Cc1c[nH]c2ccccc12)NN=C1C(=O)N(Cc2ccc(F)cc2)c2ccc(Br)cc21 assaytarget="MCF-10A cells" classname=n
molecule=O=C(Cc1c[nH]c2ccccc12)NN=C1C(=O)N(Cc2ccccc2)c2ccc(Br)cc21 assaytarget="MCF-10A cells" classname=y

---

Target: CDK2 (Homo sapiens, UniProt P24941)
Construct: purchased Reaction Biology Corp. (Kinase HotSpot service)
Assay: CDK2 kinase inhibition (Reaction Biology HotSpot)
Assay type: biochemical
Conditions: single dose of 10 µM, read-out: % Enzyme Inhibitory Activity
Entries annotated with measured inhibition at 10 µM
recordedMetric: inhibition at 10 µM (%)

molecule=O=C(Cc1c[nH]c2ccccc12)NN=C1C(=O)Nc2ccc(F)cc21 assaytarget="CDK2 (Homo sapiens, UniProt P24941)" reading=44
molecule=Cc1ccc2c(c1)C(=NNC(=O)Cc1c[nH]c3ccccc13)C(=O)N2 assaytarget="CDK2 (Homo sapiens, UniProt P24941)" reading=58
molecule=C=CCN1C(=O)C(=NNC(=O)Cc2c[nH]c3ccccc23)c2ccccc21 assaytarget="CDK2 (Homo sapiens, UniProt P24941)" reading=23
molecule=O=C(Cc1c[nH]c2ccccc12)NN=C1C(=O)Nc2ccc(Cl)cc21 assaytarget="CDK2 (Homo sapiens, UniProt P24941)" reading=44
molecule=O=C(Cc1c[nH]c2ccccc12)NN=C1C(=O)Nc2ccc([N+](=O)[O-])cc21 assaytarget="CDK2 (Homo sapiens, UniProt P24941)" reading=16

---

Entries annotated with measured melting point
recordedMetric: melting point

molecule="Cc1ccc2c(c1)C(=NNC(=O)Cc1c[nH]c3ccccc13)C(=O)N2 [Compound 7d]" reading="> 300 °C"
molecule="N#Cc1ccc(CN2C(=O)C(=NNC(=O)Cc3c[nH]c4ccccc34)c3ccccc32)cc1 [Compound 9f]" reading="233 to 234 °C"
molecule="CCCN1C(=O)C(=NNC(=O)Cc2c[nH]c3ccccc23)c2ccccc21 [Compound 9b]" reading="207 to 208 °C"
molecule="O=C(Cc1c[nH]c2ccccc12)NN=C1C(=O)N(Cc2ccc(F)cc2)c2ccccc21 [Compound 9e]" reading="227 to 229 °C"
